From: patent EP4635500A1

- System: P. aeruginosa
- test.description: MIC, broth microdilution, CDC/FDA Antibiotic Resistance Isolate Bank (Example 7, Tables 10, 15)
- Type: cell-based
- run.conditions: Pseudomonas aeruginosa, P. aeruginosa KUB No. 5597, AR Bank # 100; read-out: MIC
Record form. Attribute: MIC. Fill in for each entry.
Answers are plain numbers, in µg/mL.

smiles.entry: CN(C)c1cc(NC(=O)CNC(C)(C)C)c(O)c2c1C[C@H]1C[C@H]3[C@H](N(C)C)C(O)=C(C(N)=O)C(=O)[C@@]3(O)C(O)=C1C2=O
measurement.kind: MIC
readout.unit: µg/mL
quantitative.readout: 16

Now look at this entry.
// query For CC(C)(O/N=C(\C(=O)N[C@@H]1C(=O)N2C(C(=O)[O-])=C(C[N+]3(CCNC(=O)c4ccc(O)c(O)c4Cl)CCCC3)CS[C@H]12)c1csc(N)n1)C(=O)O , write its MIC.
// result 0.5
